- Tested on: Janthinobacterium lividum strains
- TEST_DESCRIPTION: Antibiotic MIC tests, resistance profile in words
- Assay type: cell-based
- EXPERIMENTAL_CONTEXT: Table 7 and 8
- Experimental: The antibiotic resistance profile and MICs tests were performed using Janthinobacterium lividum grown from cultures purified and grown in vegitone LB broth.
QUANTITY_NAME: sensitivity of Janthinobacterium lividum strains to antibiotics

COMPOUND: O=C(N[C@H](CO)[C@H](O)c1ccc([N+](=O)[O-])cc1)C(Cl)Cl [Chloramphenicol]
RESULT: less sensitive
//
COMPOUND: C[C@H]1[C@H](NC(=O)/C(=N\OC(C)(C)C(=O)O)c2csc(N)n2)C(=O)N1S(=O)(=O)O [Aztreonam]
RESULT: less sensitive
//
COMPOUND: C[C@@H](O)[C@H]1C(=O)N2C(C(=O)O)=C(S[C@@H]3CN[C@H](C(=O)N(C)C)C3)[C@H](C)[C@H]12 [Meropenem]
RESULT: less sensitive
